Ref: patent US12595258B2

biological target: CBP bromodomain (Homo sapiens, UniProt Q92793); assay: CBP bromodomain binding assay (TR-FRET); settings: TR-FRET (Cayman kit 600850), 1 hour incubation at room temperature; read-out: Assay 2
Sequence (Q92793 1085-1192 limits assumed): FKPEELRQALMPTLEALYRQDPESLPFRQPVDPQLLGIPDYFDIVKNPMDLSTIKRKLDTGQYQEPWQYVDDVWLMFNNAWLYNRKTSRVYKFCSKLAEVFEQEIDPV
MEASURE NAME: pEC50
// scale note: pEC50 = -log10(conc_M); give the bare number

CC(=O)N1C[C@H](c2nc(Nc3cc(C)cc(-c4cn(C)nn4)c3)cc(-c3cnccn3)n2)CC[C@@H]1C: 8.15
CC(=O)N1C[C@H](c2nc(Nc3cc(F)cc(-c4nnc(C)o4)c3)cc(-c3cnccn3)n2)CC[C@@H]1C: 8.52
CC(=O)N1C[C@H](c2nc(Nc3cccc(-c4cn(C5COC5)nn4)c3F)cc(-c3cnccn3)n2)CC[C@@H]1C: 7.19
CC(=O)N1C[C@H](c2nc(Nc3cccc(-c4cn(C)nn4)c3F)cc(-c3cnccn3)n2)CC[C@@H]1C: 8.22
CC(=O)N1C[C@H](c2nc(Nc3ccc(F)c(-c4cn(C)nn4)c3)cc(-c3cnccn3)n2)CC[C@@H]1C: 7.66

-- ask Record request: pEC50 value, item CC(=O)N1C[C@H](c2nc(Nc3cc(F)cc(-c4cn(C)cn4)c3)cc(-c3cnccn3)n2)CC[C@@H]1C
-- reply 8.15

-- ask Then this molecule: CC(=O)N1C[C@H](c2nc(Nc3cccc(-c4cn(C)nc4C)c3)cc(-c3cnccn3)n2)CC[C@@H]1C
-- reply 6.89

-- ask Now the same for CC(=O)N1C[C@H](c2nc(Nc3cc(F)cc(-c4cn[nH]c4)c3)cc(-c3cnccn3)n2)CC[C@@H]1C
-- reply 7.64
